- Test system: COLO 205
- protocol.notes: NCI tumour cell line growth inhibition, 48 h
Calls of active or inactive are those of the source. Rule as the data show it: active = GI50 up to about 1.1 µM and inactive = higher.
Bench note: report the call from T (active), F (inactive)

compound: Cc1cc(O)c(C(c2cccnc2)c2c(O)cc(C)[nH]c2=O)c(=O)[nH]1
study.target: COLO 205
class.assignment: F
//
compound: CO[C@H]1[C@@H](O)[C@H](O[C@@H]2C[C@H]3CC[C@@H]4[C@H](CC[C@]5(C)[C@@H](C6=CC(=O)OC6)CC[C@]45O)[C@@]3(C)[C@H](OC(C)=O)C2)O[C@@H](C)[C@H]1O
study.target: COLO 205
class.assignment: F
//
compound: COc1cccc2c1/c(=C/c1ccc(N(C)C)cc1)c1cc(-c3ccccc3)[n+](C)n12
study.target: COLO 205
class.assignment: T
//
compound: O=C(COc1ccc(Cl)c(Cl)c1)Nc1ccc[n+](Cc2ccc(S(=O)(=O)F)c(Cl)c2)c1
study.target: COLO 205
class.assignment: F
//
compound: CC(=O)OC(C)(C)C1CCC(C)(C(O)COc2ccc(CCNC(=O)c3ccccc3)cc2)O1 (centres undefined)
study.target: COLO 205
class.assignment: F

Exam item: Please state the recorded outcome for this compound: `O=C(/C=C/c1ccc(Cl)cc1)c1ccccc(=O)c1O`
Marked response: F

Exam item: What call does the record list for `CCN(CC)CCCNC(=O)c1cc(-c2nccn2C)nc2ccccc12` ?
Marked response: F

Exam item: Any idea what this test logged for CC(=O)OCC1OC(n2c3c(c(-c4ccc(C)cc4)c(C#N)c2=S)C(=O)CC(C)(C)C3)C(OC(C)=O)C(OC(C)=O)C1OC(C)=O (centres undefined) ?
Marked response: F

Exam item: Dear all, I need the recorded test outcome for C[C@@H]1C(=O)CC2C(C)(C)CCC[C@]2(C)[C@@]12CC[C@]1(C=COC1)O2 (some centres undefined) , thank you.
Marked response: F

Exam item: For CCCCCCCCCC1(N=[N+]=[N-])C(=O)c2ccccc2N(C)C1=O (centres undefined) , which call appears in the assay record?
Marked response: F

Exam item: I would be grateful if you could indicate the recorded call for `CO/N=C\c1ccc2c(c1)Sc1ccccc1O2` .
Marked response: F

Exam item: Returns: the outcome recorded for `COc1ccc2c(c1)c(CC(=O)O)c(C)n2C(=O)c1ccc(Cl)cc1` in this assay.
Marked response: F

Exam item: Hi, do you know how `COc1ccc(-c2ncn(C[Si](C)(C)C)c2-c2ccc(OC)cc2)cc1` came out in this test?
Marked response: F

Exam item: Please share the test call associated with Cc1cc(C)c(N[S+]([O-])c2ccc(Cl)cc2)c(C)c1 (centres undefined) .
Marked response: F

Exam item: Give the logged outcome of this assay for the following compound: `O=c1c(NO)c([N+](=O)[O-])cnn1-c1ccccc1`
Marked response: F

Exam item: Call for entry `NS(=O)(=O)c1cc(Cl)c(NC(=S)NC(=O)Nc2ccc(Cl)c(Cl)c2)c(Cl)c1` :
Marked response: F

Exam item: Per the records of this test, what outcome belongs to `Cc1ccccc1-n1c(=S)[nH]c2c(sc(=O)n2-c2ccccc2C)c1=O` ?
Marked response: F

Exam item: Record lookup: outcome of this test for `Cc1cc2[nH]c3c(C#N)c(-c4ccccc4)c(/C=N/c4cccc(C(F)(F)F)c4)c(=O)n3c2cc1C` ?
Marked response: F

Exam item: Short answer needed: outcome of this test for `Cc1cc(NCc2ccccc2)c2ccccc2[n+]1CCCCCCCCCC[n+]1c(C)cc(NCc2ccccc2)c2ccccc21.[O-][Cl+3]([O-])([O-])[O-].[O-][Cl+3]([O-])([O-])[O-]` ?
Marked response: T

Exam item: Can you look up the reported call for CCOc1ccc(NCC2CC/C(=C\C=C\c3ccccc3)C2=O)cc1 (centres undefined) for me?
Marked response: F

Exam item: Please let me know the test result on file for CC(C(N)=O)N(C)C(=O)c1cc2ccccc2[n+](Cc2ccccc2)c1 (centres undefined) .
Marked response: F

Exam item: Short answer needed: outcome of this test for `CC(=O)O[C@H]1/C(=C/c2ccncc2)C[C@H]2[C@@H]3CC=C4C[C@@H](N5CCCC5)CC[C@]4(C)[C@H]3CC[C@]12C` ?
Marked response: F

Exam item: Test call for this compound, please: Cc1nc2cccc(F)c2c(=O)n1C1CCCCNC1=O (centres undefined)
Marked response: F

Exam item: Each compound tested received a call. Report the one for `CC1=CC(=O)[C@@H](O)[C@]2(C)[C@H]3[C@@]4(O)OC[C@]35[C@H]([C@@H](C)[C@H]4O)[C@@H](OC(=O)C(C)(C)CO)C(=O)O[C@@H]5C[C@@H]12` .
Marked response: F

Exam item: // return assay outcome for `Nc1nc(N)c2ncn(Cc3ccccc3CCl)c2n1`
Marked response: F

Exam item: Hey, what did the test say about `O=c1[nH]cc(C(F)(C(F)(F)F)C(F)(F)F)c(=O)[nH]1` ?
Marked response: F

----------
Reported values of GI50 for individual entries
- Test system: XF498
- protocol.notes: NCI tumour cell line growth inhibition, 48 h
Calls of active or inactive are those of the source. No stated cut-off is given here; in the data, active = GI50 up to about 1.1 µM and inactive = higher.

Below, each entry is followed by its recorded GI50 result.
compound: C=C1CC(OC)(C(O)C(=O)N[C@H]2OCO[C@H]3C2O[C@H](C[C@@H](COC)OC)C(C)(C)C3OC)O[C@H](C)[C@@H]1C (stereo partly specified)
observable: GI50
test.value: < 0.00482 µM (active)
//
compound: O=[N+]([O-])c1cc([N+](=O)[O-])c(C(Cl)C(Cl)c2ccccc2)cc1C(Cl)C(Cl)c1ccccc1 (stereo unspecified)
observable: GI50
test.value: 1.87 µM (inactive)
//
compound: O=c1c(NO)c([N+](=O)[O-])cnn1-c1ccccc1
observable: GI50
test.value: 3.41 µM (inactive)
//
compound: O=c1ccccc2cccc(O)c12
observable: GI50
test.value: > 100 µM (inactive)
//
compound: CC(C)=CC(=O)Cc1nc2ccc([N+](=O)[O-])cc2[nH]c1=O
observable: GI50
test.value: 41.3 µM (inactive)

Exam item: What value of GI50 has been reported for the following compound? Cc1ccc(NC(=O)CCC(=O)C(C#N)c2ccc(Cl)cc2)cc1C (stereo unspecified)
Marked response: > 100 µM (inactive)

Exam item: What value of GI50 has been recorded for this entry: CC(C)c1cc(OCC(O)CO)cc(C(C)C)c1 (stereo unspecified)
Marked response: > 100 µM (inactive)

Exam item: Reported GI50, compound CC(C)(C)[Si](OC1CCOC1=O)(c1ccccc1)c1ccccc1 (stereo unspecified) : ____
Marked response: 11.1 µM (inactive)

Exam item: Given CC(Oc1ccc2cc(C(=O)c3ccccc3)c(=O)oc2c1)C(=O)O (stereo unspecified) , state its recorded GI50.
Marked response: > 100 µM (inactive)

Exam item: # query: GI50 of entry `O=c1[nH]cc(C(F)(C(F)(F)F)C(F)(F)F)c(=O)[nH]1`
Marked response: > 100 µM (inactive)

Exam item: Fill blank: measured GI50 of the compound CN1C2(c3ccccc3)c3c(-c4ccccc4)sc(-c4ccccc4)c3C1(c1ccccc1)C1C(=O)N(c3ccccc3)C(=O)C12 (stereo unspecified) is ____.
Marked response: > 100 µM (inactive)

----------
- Test system: MCF7
- protocol.notes: NCI tumour cell line growth inhibition, 48 h
Activity calls are given as the source filed them. Cut-off read from the data, not from the text of the source: active = GI50 up to about 1.1 µM and inactive = higher.
Write down one outcome, taken from 1 for active, 0 for inactive

Take a look at these entries with their results.
molecule: O=c1c(NO)c([N+](=O)[O-])cnn1-c1ccccc1
class.assignment: 0
//
molecule: COc1cc(-c2[nH]ccc2Cl)oc1C1=C2N=C3C=C2C(C(C)C)C1CCCCCCCC3 (centres undefined)
class.assignment: 1
//
molecule: O=[N+]([O-])C(/C=C(\Cl)[N+](=O)[O-])=C1Nc2ccccc2N1
class.assignment: 0
//
molecule: Cc1cc(Cc2cc(Cc3cc(C)cc(C(C)(C)C)c3O)c(C)cc2C)c(O)c(C(C)(C)C)c1
class.assignment: 0

Exam item: Dear colleague, could you share the recorded outcome for `COC(=O)c1ccc(Cc2cc(Cc3ccc(C(=O)OC)cc3)cc(Cc3ccc(C(=O)OC)cc3)c2)cc1` when you have a moment?
Marked response: 0

Exam item: What outcome does the record of this test show for `CN(C)CCNC(=O)c1ccc(NCCCN(C)CCCNc2ccc(C(=O)NCCN(C)C)c3nc4ccccc4c(O)c23)c2c(O)c3ccccc3nc12` ?
Marked response: 1

Exam item: Please share the test call associated with `O=C1C(=C(C(=O)c2ccccc2)C(=O)c2ccccc2)OC(c2ccccc2)=C1C(=O)c1ccccc1` .
Marked response: 0

Exam item: Which outcome was assigned to `CC1=CC(=O)[C@@H](O)[C@]2(C)[C@H]3[C@@]4(O)OC[C@]35[C@H]([C@@H](C)[C@H]4O)[C@@H](OC(=O)C(C)(C)CO)C(=O)O[C@@H]5C[C@@H]12` in this test?
Marked response: 1

Exam item: Write down the call the test reported for this molecule. Item: `C=CCn1c(=O)ccn(COCCO)c1=O`
Marked response: 0
